Target chain: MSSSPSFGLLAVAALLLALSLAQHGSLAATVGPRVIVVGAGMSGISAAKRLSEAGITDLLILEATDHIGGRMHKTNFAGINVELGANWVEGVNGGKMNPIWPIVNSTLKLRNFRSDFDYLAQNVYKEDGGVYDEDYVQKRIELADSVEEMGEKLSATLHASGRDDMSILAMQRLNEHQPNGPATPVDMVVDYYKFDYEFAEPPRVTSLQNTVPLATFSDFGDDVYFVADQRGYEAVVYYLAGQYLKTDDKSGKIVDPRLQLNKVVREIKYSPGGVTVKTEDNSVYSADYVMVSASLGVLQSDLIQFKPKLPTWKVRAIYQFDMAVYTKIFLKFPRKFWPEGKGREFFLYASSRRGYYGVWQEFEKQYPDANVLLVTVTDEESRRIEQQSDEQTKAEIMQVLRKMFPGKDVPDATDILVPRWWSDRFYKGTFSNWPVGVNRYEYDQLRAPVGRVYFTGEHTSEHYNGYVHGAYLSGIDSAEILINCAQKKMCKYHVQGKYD
Hi! Just check whether Ki is below 20 nM. Below gives True, equal or above gives False.

// below: answered molecules
C#CCNC(=N)NCCCCN | False
COc1cccc(CNC(N)=NCCCCCN)c1 | False
CC(C)=CCN=C(N)NCCCCCCCCNCCCCCCCCN=C(N)NCC=C(C)C | True
CC(C)=CCN=C(N)NCCCCN=C(N)NCC=C(C)C | False
NCCCCCN=C(N)NC/C=C/c1ccccc1 | False

Incoming: Confirm or reject: Ki of `NC(N)=NCCCCCCCCNCCCCCCCCN=C(N)NCc1ccccc1` lies strictly below 20 nM
Outgoing: True

Incoming: Confirm or reject: Ki of `CC(C)=CCNC(N)=Nc1ccc(CN)cc1` lies strictly below 20 nM
Outgoing: False

Incoming: Confirm or reject: Ki of NCCCCCCCCN [DIAMINOOCTANE] lies strictly below 20 nM
Outgoing: False

Incoming: Confirm or reject: Ki of `CC(C)=CCNC(=N)NCCCCCCN` lies strictly below 20 nM
Outgoing: False

Incoming: Confirm or reject: Ki of `CC(C)=CCNC(=N)NCCCCN` lies strictly below 20 nM
Outgoing: True

// data source = ChEMBL document CHEMBL1158478
